# assay: Toxicity in Gambusia affinis
# Type: organism-based
# run.parameters: in vivo
metric: LC50 (µg/mL)
Just the number in µg/mL, nothing appended.

Determine its reported LC50: CC(=O)O[C@H]1O[C@@H](C2=CC(=O)O[C@@H]2O)C[C@@H]2[C@@H]1CC[C@H]1[C@@]2(C)CC[C@H]2C(C)(C)CCC[C@]12C [CAVERNOSOLIDE]
0.75

====

# assay: Toxicity in Artemia salina
# Format: organism-based
# run.parameters: in vivo
metric: LC50 (µg/mL)
Just the number in µg/mL, nothing appended.

Determine its reported LC50: CC(=O)O[C@H]1O[C@@H](C2=CC(=O)O[C@@H]2O)C[C@@H]2[C@@H]1CC[C@H]1[C@@]2(C)CC[C@H]2C(C)(C)CCC[C@]12C [CAVERNOSOLIDE]
0.37
